- Assay info: self-splicing fitness, log relative to wild type (ln ratio); higher = more splicing; Tetrahymena group I intron in knt gene, E. coli kanamycin selection, DiMSum; sequences stand for … in CUCUCU…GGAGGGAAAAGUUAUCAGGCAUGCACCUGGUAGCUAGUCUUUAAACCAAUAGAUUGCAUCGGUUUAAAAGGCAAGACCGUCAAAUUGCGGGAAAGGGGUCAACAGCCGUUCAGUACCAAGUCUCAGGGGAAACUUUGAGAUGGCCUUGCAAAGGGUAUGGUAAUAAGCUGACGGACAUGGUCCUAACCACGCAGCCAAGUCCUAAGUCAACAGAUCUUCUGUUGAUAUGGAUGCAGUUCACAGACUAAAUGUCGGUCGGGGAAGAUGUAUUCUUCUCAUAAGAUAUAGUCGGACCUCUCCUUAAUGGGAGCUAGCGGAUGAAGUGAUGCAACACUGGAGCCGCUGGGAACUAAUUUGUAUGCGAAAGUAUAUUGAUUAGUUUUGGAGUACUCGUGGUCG;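 further: selection with 25 µg/mL kanamycin versus none on LB agar overnight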
- Test parameters: 37 °C
Quantity kind: self-splicing fitness (ln)
One number for each entry.

UCUUAGCAAUAUUACGUCUA -2.19

# map each sequence to its self-splicing fitness (ln)
1. CCAAAGCAAUAUUACGAUAA
2. CUCAAGCAAUAUUACGUCCG
3. GCGCAGCAAUAUUACGGUAU
4. CGCCAGCAAUAUUACGCCUC
5. GAACAGCAAUAUUACGUCGC
6. UCGAAGCAAUAUUACGAUUG

Ans.
1: -0.828; 2: -1.38; 3: -0.0516; 4: -0.661; 5: -0.68; 6: -1.73

Each sequence below has a reported value. Please supply its self-splicing fitness (ln).
1. CGACAGCAAUAUUACGUUCA
2. UAAGAGCAAUAUUACGGUAU
3. GAAUAGCAAUAUUACGACUC
4. UUCAAGCAAUAUUACGGUCA
5. GCUCAGCAAUAUUACGCUCG
6. GGGAAGCAAUAUUACGGGAG
7. UGGGAGCAAUAUUACGUACA
8. GUGCAGCAAUAUUACGAAUG

Ans.
0.198
-2.27
-1.34
0.00589
-1.31
-2.09
-0.889
-2.01

Qu. Given the sequence CCAUAGCAAUAUUACGAUUG , what is its reported self-splicing fitness (ln)?
Ans. -0.642

* * *

Give self-splicing fitness (ln) for every item shown.
- Assay info: self-splicing fitness, log relative to wild type (ln ratio); higher = more splicing; Tetrahymena group I intron in knt gene, E. coli kanamycin selection, DiMSum; sequences stand for … in CUCUCU…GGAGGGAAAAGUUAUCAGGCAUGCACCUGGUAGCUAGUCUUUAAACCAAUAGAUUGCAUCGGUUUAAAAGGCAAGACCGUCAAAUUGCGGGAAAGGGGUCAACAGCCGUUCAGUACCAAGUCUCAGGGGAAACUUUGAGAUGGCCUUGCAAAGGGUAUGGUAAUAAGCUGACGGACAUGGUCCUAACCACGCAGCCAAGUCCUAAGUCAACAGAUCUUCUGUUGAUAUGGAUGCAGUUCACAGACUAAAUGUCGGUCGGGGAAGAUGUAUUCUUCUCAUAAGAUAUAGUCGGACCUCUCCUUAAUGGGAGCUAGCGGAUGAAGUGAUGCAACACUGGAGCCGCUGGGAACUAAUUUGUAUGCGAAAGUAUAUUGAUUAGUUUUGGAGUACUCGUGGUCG
- Test parameters: 30 °C
Answers are plain numbers.

CACCAGCAAUAUUACGGGAC -4.05
GGAGAGCAAUAUUACGGUGC -3.03
AACUAGCAAUAUUACGGCCC -1.6

Provide each entry's self-splicing fitness (ln) from the list below.
1. GGACAGCAAUAUUACGUACU
2. CUUCAGCAAUAUUACGGUUG
3. GCCCAGCAAUAUUACGACUU

Ans.
1: -1.22; 2: -1.28; 3: -1.45

State recorded self-splicing fitness (ln) for all listed sequences.
1. CUCCAGCAAUAUUACGAUGU
2. CUAAAGCAAUAUUACGUGAG

Ans.
1. -3.28
2. -0.0713

Record self-splicing fitness (ln) for all entries; do not skip any.
1. AUACAGCAAUAUUACGACGG
2. UAUUAGCAAUAUUACGGCAC
3. GGACAGCAAUAUUACGACUU

Ans.
1. -3.2
2. -1.88
3. -0.232

Count: 5. Required value per item: self-splicing fitness (ln).
1. GUUAAGCAAUAUUACGGGAA
2. GACCAGCAAUAUUACGACGA
3. GUCAAGCAAUAUUACGGCAC
4. CGUCAGCAAUAUUACGACUA
5. AUUCAGCAAUAUUACGUUGU

Ans.
1: -1.87; 2: -0.236; 3: -1.35; 4: -0.58; 5: -3.14
